- System: MDA-MB-231 breast
- PROCEDURE_DETAILS: NCI tumour cell line growth inhibition, 48 h; in the data active = GI50 below about 0.43 µM; inactive = the rest
Respond using exactly one of the listed classes: 1 (yes) (active), 0 (no) (inactive)

Example cases with answers are listed next.
NCCN1CCN(c2nccc(-c3ccc4ccccc4c3)n2)CC1	0 (no)
CCCCCCNc1nc(NCCCCCC)c2[nH]c(NCCCCCC)nc2n1	0 (no)

stdin: Please let me know the test result on file for `CCN(Cc1c(F)cccc1F)c1ccc(CO)c(Cl)c1` .
stdout: 0 (no)

stdin: Also check `CNc1nc(NC2CCCC2)nc(Sc2ccc(OC)cc2)n1`
stdout: 0 (no)

stdin: Do the same for `O=C(Nc1cc(-c2ccccc2)[nH]n1)c1ccc(Cl)cc1` please
stdout: 0 (no)

stdin: Likewise for `CCOC(=O)[C@@H](C)C[C@H](Cc1ccccc1)NC(=O)c1csc([C@@H](C[C@H](C(C)C)N(C)C(=O)[C@@H](NC(=O)[C@H]2CCCCN2C)C(C)(C)C)OC(C)=O)n1` ?
stdout: 1 (yes)

stdin: Subsequent entry: `CCCSc1cc(Cl)nc(N)n1`
stdout: 0 (no)

stdin: // same read-out, input: `CCCCCC(=O)Oc1ccc(/C(=C(\C)c2ccc(OC)cc2)c2ccc(OCCN3CCCCC3)cc2)cc1`
stdout: 0 (no)

---

- Tested on: HS 578T breast
- PROCEDURE_DETAILS: NCI tumour cell line growth inhibition, 48 h
REPORTED_ENDPOINT: TGI

Some solved entries appear below for comparison.
CCOC(=O)c1ccc(C(=O)/C(C(=O)OC(C)(C)C)=C2\CCCN2C)n1C	> 100 µM
CC(C)(C)OC(=O)c1ccc(NCc2cc(O)ccc2O)cc1	18.6 µM

Shifting focus to the compound that follows.
stdin: Short answer please: TGI, HS 578T breast, entry CCOC1NC(=O)c2ccccc21 (stereo not drawn)
stdout: > 100 µM

---

- Test system: OVCAR-5 ovarian
- PROCEDURE_DETAILS: NCI tumour cell line growth inhibition, 48 h
REPORTED_ENDPOINT: TGI

Some solved entries appear below for comparison.
CCNC(=S)N/N=C/c1ccccn1	> 100 µM
CCc1cc(=O)n(/C(C)=C/c2ccccc2)n1C	> 100 µM
COC(=O)c1cc2c3c(cc(NCCN)c2[nH]1)N(C(=O)c1cc2cc(OC)c(OC)c(OC)c2[nH]1)CC3CCl (stereo unspecified)	0.42 µM

stdin: Name the recorded TGI for COC1OC2COC(C)(C)OC2C2OC(C)(C)OC12 (stereo unspecified) .
stdout: > 100 µM

stdin: # repeat for Clc1cccc(C2ON=C(c3ccccc3)N2C23CC4CC(CC(C4)C2)C3)c1Cl (stereo unspecified)
stdout: > 10 µM

stdin: Next entry: `CNc1nc(NC2CCCC2)nc(Sc2ccc(OC)cc2)n1`
stdout: > 10 µM

---

// TGI lookup, one value per entry
- Tested on: NCI-H460 lung
- PROCEDURE_DETAILS: NCI tumour cell line growth inhibition, 48 h

A selection of reference data follows.
c1ccc(-c2ccc(N=NN3CCCC3)cc2)cc1	> 100 µM
O=C1c2ccccc2-c2cccc3ccc(Cc4ccccc4)c1c23	> 100 µM
C=C1CC2C(=O)N(c3ccccc3)C(=O)C2CC1n1[nH]c(=O)n(Cc2ccccc2)c1=O (stereo unspecified)	> 100 µM
CC1=NC(C)(C)N(O)C1(C)C	> 100 µM
COC(=O)C1=C(C)N2[C@H](C(=O)O)CS[C@@]2(C)[C@H](C(=O)OC)[C@H]1c1cccc([N+](=O)[O-])c1	> 100 µM
COc1cc(-c2c3c(cc4c2OCO4)[C@@H](Nc2ccc4c(c2)Cc2cc(N[C@@H]5c6cc7c(cc6C(c6cc(OC)c(O)c(OC)c6)[C@H]6C(=O)OC[C@H]56)OCO7)ccc2-4)[C@H]2COC(=O)[C@@H]2C3)cc(OC)c1O (stereo partly specified)	> 100 µM

stdin: # get_value(readout='TGI', item= `CC(C)(C)c1ccc2c(c1)OCc1n[nH]c(n1)COc1cc(C(C)(C)C)ccc1OCCOCCO2` )
stdout: 12.7 µM

stdin: Try this molecule too: `CN(C)CCNC(=O)Nc1c(C#N)[n+]([O-])c2cc(Cl)c(Cl)cc2[n+]1[O-]`
stdout: > 100 µM

stdin: // query: COc1cc(/C=C2\CC3C4CC=C5CC(N6CCCC6)CC[C@]5(C)C4CC[C@]3(C)C2OC(C)=O)ccc1OCCN1CCCC1 (stereo partly specified)
stdout: 3.92 µM

stdin: How about this molecule: `FC(F)=C(c1ccc(-c2ccc(Cl)cc2)cc1)C(F)(F)F`
stdout: 33.7 µM

---

- Tested on: MALME-3M melanoma
- PROCEDURE_DETAILS: NCI tumour cell line growth inhibition, 48 h; in the data active = GI50 below about 0.43 µM; inactive = the rest
Respond only with the outcome that fits, drawn from active, inactive

# count of solved cases: 5
CNc1nc(NC2CCCC2)nc(Sc2ccc(OC)cc2)n1	inactive
CNC(=O)c1ccc(-c2cnc3ncc(Cc4ccc5ncccc5c4)n3n2)cc1F	inactive
CCCCCC(=O)Oc1ccc(/C(=C(\C)c2ccc(OC)cc2)c2ccc(OCCN3CCCCC3)cc2)cc1	inactive
Cc1noc(C)c1-c1ccc2[nH]c(=O)n3c2c1OC[C@@H]3c1ccccn1	inactive
CN1CCN(Cc2ccc(NC(=O)c3ccc(C(C)(C)C)c(C#Cc4cnc5cccnn45)c3)cc2C(F)(F)F)CC1	inactive

stdin: Tell me the recorded outcome of this test for `CS(=O)(=O)Nc1ccc(-c2ccc3c(NC(=O)C4CC4)n[nH]c3c2)cc1` .
stdout: inactive

stdin: What do you get for `CCCCCCNc1nc(NCCCCCC)c2[nH]c(NCCCCCC)nc2n1` ?
stdout: inactive

stdin: Now consider `O=C(N/N=C/c1ccc(Cl)cc1Cl)c1ccccc1Nc1cccc(C(F)(F)F)c1` and answer again.
stdout: inactive

stdin: Then what about the compound `C=CC(=O)N1CCN(c2ncnc3c(F)c(-c4c(O)cccc4F)c(Cl)cc23)CC1` ?
stdout: inactive

---

- Tested on: HOP-62 NSCLC
- PROCEDURE_DETAILS: NCI tumour cell line growth inhibition, 48 h; in the data active = GI50 below about 0.43 µM; inactive = the rest
I would appreciate it if you answered using one of these outcomes: t (active), f (inactive)

Worked cases, answers included:
CN(C)CCNC(=O)Nc1c(C#N)[n+]([O-])c2cc(Cl)c(Cl)cc2[n+]1[O-]	f
O=C(N/N=C/c1ccc(Cl)cc1Cl)c1ccccc1Nc1cccc(C(F)(F)F)c1	f
CCOC(=O)[C@@H](C)C[C@H](Cc1ccccc1)NC(=O)c1csc([C@@H](C[C@H](C(C)C)N(C)C(=O)[C@@H](NC(=O)[C@H]2CCCCN2C)C(C)(C)C)OC(C)=O)n1	t
N#Cc1c(-c2ccccc2)nc2c(c(-c3ccccc3)nn2-c2ccccc2)c1-c1ccc(O)cc1	f
C=C(C)[C@@H]1CC[C@@]2(C(=O)O)CC[C@]3(C)C(CCC4[C@@]5(C)CCC(OS(=O)(=O)c6ccccc6)C(C)(C)C5CC[C@]43C)C12 (stereo not given in full)	f

As a next step, examine the compound that follows.
stdin: How was `COc1cc(-c2cn(C)c(=O)c(C)c2C)cc(OC)c1CN1CC[C@H](N2CCN(c3ccc(N[C@H]4CCC(=O)NC4=O)cc3F)CC2)C(F)(F)C1` classified in this test?
stdout: f

---

- Test system: MCF7 breast
- PROCEDURE_DETAILS: NCI tumour cell line growth inhibition, 48 h
REPORTED_ENDPOINT: TGI

Below, 3 molecules whose answers are already recorded.
CCOP(=O)(OCC)c1cc(-c2ccccc2)ccc1N	> 100 µM
COc1ccc2c(c1)C=CC(C#N)N2C(=O)c1ccccc1 (stereo unspecified)	> 100 µM
CC/C=C\C/C=C\C/C=C\CCCCCCCC(=O)OC(COC(=O)CCCCCCCCCCCCCCCCC)COC1OC(CO)C(O)C(O)C1O (stereo unspecified)	> 25 µM

stdin: Would you mind telling me what TGI value was observed for `CCN(C(=O)N[C@H](C(=O)N[C@@H](C)C(=O)OC)C(C)C)c1ccccc1` ?
stdout: > 100 µM

stdin: Try the molecule `Cc1ccc(C(=O)c2[nH]c(Nc3cc(C)ccn3)c(C(=S)Nc3ccccc3)c2N)cc1`
stdout: > 100 µM

---

Below: a set of entries, each annotated with reported GI50.
- System: SK-MEL-28 melanoma
- PROCEDURE_DETAILS: NCI tumour cell line growth inhibition, 48 h

Study these solved cases before continuing.
CCCSc1cc(Cl)nc(N)n1	> 100000 nM
N#Cc1c(-c2ccccc2)nc2c(c(-c3ccccc3)nn2-c2ccccc2)c1-c1ccc(O)cc1	1580 nM
CC(=O)n1c(-c2ccc(Cl)cc2)nc2c(c1=O)C(c1ccc(Cl)cc1)c1sc3c(Cl)cccc3c1O2 (stereo not given)	1100 nM
CS(=O)(=O)Nc1ccc(-c2ccc3c(NC(=O)C4CC4)n[nH]c3c2)cc1	> 25000 nM

Moving on to the next molecule.
stdin: # GI50 lookup, item `CCCNCc1cc(C)cc2c1nc(N1CCNCC1)n2Cc1cc(C)c(F)c(C)c1`
stdout: 1840 nM
